B1: ZNF263 (parent)
chain: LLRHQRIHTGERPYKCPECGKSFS

# Variants of: B1
# experimentalProtocol: protein stability index of a GFP-peptide fusion (GPS, HEK-293T) (PSI 1-6); higher = more stable;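 note: lentivirally expressed fusions sorted by FACS into six bins by GFP to DsRed ratio, PSI derived from sequencing read proportions per bin multiplied by bin number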
# testSettings: c terminus: a fixed tail appended
measurementName: protein stability index
// print number alone

Before answering, review these 2 worked examples.
>>> observedresult("LLRHQRIHTGERQYKCPECGKSFS [P13Q]")
3.02
>>> observedresult("LLRHQRIHTGERPYKCPECGKSFW [S24W]")
2.59

Return reported protein stability index; argument: LLRHQRIHTGERPYKCPECLKSFS [G20L] 1.66

I would be grateful if you could share the reported protein stability index for LMRHQRIHTGERPYKCPECGKSFS [L2M] . 3.08
